test-system: hTLR9 (Homo sapiens, UniProt Q9NR96)
Construct: expressed in transfected cells; host or cells: HEK-Blue-hTLR9 cells (HEK293)
Sequence (Q9NR96 26-1032): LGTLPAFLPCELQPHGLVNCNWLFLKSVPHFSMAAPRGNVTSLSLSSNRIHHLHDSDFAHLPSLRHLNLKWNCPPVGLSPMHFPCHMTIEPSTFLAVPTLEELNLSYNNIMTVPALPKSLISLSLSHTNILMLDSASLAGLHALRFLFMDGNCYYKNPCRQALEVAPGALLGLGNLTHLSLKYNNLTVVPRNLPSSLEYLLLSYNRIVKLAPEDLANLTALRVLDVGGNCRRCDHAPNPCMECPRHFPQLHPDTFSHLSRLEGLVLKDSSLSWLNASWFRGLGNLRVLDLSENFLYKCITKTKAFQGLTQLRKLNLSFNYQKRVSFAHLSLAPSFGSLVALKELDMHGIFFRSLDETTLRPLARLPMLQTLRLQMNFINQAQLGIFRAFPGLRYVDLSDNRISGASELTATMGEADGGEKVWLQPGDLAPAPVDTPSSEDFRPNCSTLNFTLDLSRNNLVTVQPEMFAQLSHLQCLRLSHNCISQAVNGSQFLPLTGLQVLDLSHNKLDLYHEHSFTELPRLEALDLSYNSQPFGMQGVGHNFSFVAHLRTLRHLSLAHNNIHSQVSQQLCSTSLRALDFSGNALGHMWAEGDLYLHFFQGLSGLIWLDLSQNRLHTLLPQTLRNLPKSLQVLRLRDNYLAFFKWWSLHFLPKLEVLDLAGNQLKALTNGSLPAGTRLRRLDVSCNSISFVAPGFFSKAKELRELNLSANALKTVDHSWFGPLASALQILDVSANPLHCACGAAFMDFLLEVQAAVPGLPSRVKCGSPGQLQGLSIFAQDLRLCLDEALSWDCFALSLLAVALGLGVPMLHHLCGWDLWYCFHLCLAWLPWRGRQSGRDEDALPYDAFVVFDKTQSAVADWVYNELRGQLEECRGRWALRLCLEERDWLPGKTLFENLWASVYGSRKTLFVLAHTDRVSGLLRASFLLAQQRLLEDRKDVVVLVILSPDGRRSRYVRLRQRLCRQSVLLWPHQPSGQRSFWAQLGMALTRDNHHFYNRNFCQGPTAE
assay-name: hTLR9 antagonism (SEAP inhibition assay) in HEK-Blue-hTLR9 (HEK293) cells, ODN-2006 stimulated
Type: cell-based
condition-set: HEK-Blue hTLR9, 1 μM; SEAP, HEK-Blue-hTLR9 cells; read-out: hTLR9 inhibitory activity (% at 1 μM)
readout-name: inhibition at 1 µM (%)
Kindly answer with a numeric value in %, unit omitted.

Consider the following illustrative entries.
# compound, inhibition at 1 µM, %
measured = [
    ("CC(C)N1CCN(c2ccc(-c3nccc4[nH]c(CN5CCC(F)CC5)cc34)cc2)CC1 [Example A24]", 95.1),
    ("Cc1cc2c(cc(CCCN3CCOCC3)n2C)c(-c2ccc(N3CCN(C(C)C)CC3)cc2)n1 [Example C6]", 99.1),
    ("CCN1CCN(c2ccc(-c3nccc4[nH]c(CN5CCOCC5)cc34)cc2)CC1 [Example A3]", 100),
]

Pending compound:
Ask | Which measured inhibition at 1 µM value corresponds to CC(C)N1CCN(c2ccc(-c3nccc4[nH]c(CCN5CCOCC5)cc34)cc2)CC1 [Example B1] ?
Reply | 100
